# study.target: Atrial natriuretic peptide receptor 1 (Homo sapiens) (UniProt P16066)
# Sequence (P16066 whole entry, looked up): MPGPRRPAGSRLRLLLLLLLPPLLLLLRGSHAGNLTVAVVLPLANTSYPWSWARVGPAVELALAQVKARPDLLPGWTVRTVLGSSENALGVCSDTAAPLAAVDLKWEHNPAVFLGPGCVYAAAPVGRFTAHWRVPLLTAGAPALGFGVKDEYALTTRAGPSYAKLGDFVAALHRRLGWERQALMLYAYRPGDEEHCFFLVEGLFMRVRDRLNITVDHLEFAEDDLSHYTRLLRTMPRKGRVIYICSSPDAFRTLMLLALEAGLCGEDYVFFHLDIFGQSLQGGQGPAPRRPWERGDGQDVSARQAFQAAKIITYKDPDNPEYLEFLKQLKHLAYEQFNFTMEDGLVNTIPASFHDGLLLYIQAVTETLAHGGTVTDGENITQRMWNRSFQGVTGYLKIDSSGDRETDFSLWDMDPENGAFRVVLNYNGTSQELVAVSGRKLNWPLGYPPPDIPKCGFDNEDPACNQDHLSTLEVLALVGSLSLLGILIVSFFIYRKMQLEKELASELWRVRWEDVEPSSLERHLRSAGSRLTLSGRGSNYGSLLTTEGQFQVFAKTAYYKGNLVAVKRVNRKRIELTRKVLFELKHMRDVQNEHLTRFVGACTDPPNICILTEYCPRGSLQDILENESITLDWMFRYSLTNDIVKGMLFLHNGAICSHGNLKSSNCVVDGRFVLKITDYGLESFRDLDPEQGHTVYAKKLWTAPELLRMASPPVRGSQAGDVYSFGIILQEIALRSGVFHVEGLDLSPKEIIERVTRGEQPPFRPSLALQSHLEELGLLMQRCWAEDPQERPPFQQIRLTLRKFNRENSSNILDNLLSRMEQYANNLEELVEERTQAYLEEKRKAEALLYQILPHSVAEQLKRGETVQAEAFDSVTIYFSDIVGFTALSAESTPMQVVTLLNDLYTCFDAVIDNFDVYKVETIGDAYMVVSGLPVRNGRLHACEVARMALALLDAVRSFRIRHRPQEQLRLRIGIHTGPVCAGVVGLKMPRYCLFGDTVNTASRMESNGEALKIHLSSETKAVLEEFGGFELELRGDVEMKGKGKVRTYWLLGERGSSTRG
# assay.protocol: Natriuretic polypeptide receptor (hNpr1) antagonism - Pilot CMLD screen (AID 1347052);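 further: HEK293 cells with hNpr1 stimulated by hNppA peptide at 0.1 nM; cGMP level read as GloSensor luciferase luminescence after agonist stimulation; on the % scale 0 is the no-effect control and ±100 the full control effect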
# test.conditions: HEK293 hNpr1 GloSensor cGMP luminescence, ANP-stimulated; series mostly up to 9.22 µM
Results filed as inconclusive are left out. Activity calls are given as the source filed them. The call rests on the fitted dose curve.
readout: outcome

Example results:
INSERT INTO measurements (compound, readout, recorded_value) VALUES
  ('COC[C@H]1O[C@@H](c2c(OC)cc(OC)cc2OC)[C@H](OC)[C@@H](OC)[C@H]1OC', 'outcome', 'inactive'),
  ('Cc1ccc(C=CC2=C[C@]3(C)C[C@]2(C)[C@H](c2ccc(C)cc2)CC3=O)cc1', 'outcome', 'inactive'),
  ('CCCCc1cc2c(cn1)C(=O)C(C)(OC(C)=O)C(=O)C2 (centres undefined)', 'outcome', 'inactive'),
  ('CC1(OC(=O)C2CCCC2)C(=O)C=C2C=C3CCCN3C=C2C1=O (centres undefined)', 'outcome', 'inactive'),
  ('O=C1OC2(CCCCC2)CC2=C1[C@H]1O[C@](CCCCN3C(=O)c4ccccc4C3=O)(Cc3ccccc31)O2', 'outcome', 'inactive'),
  ('COC(=O)C1C[C@@]23C(=NN=C(SC)C2N(C)c2ccc(OC)cc23)N1C(C)=O (some centres undefined)', 'outcome', 'inactive');

Which outcome is listed for "COC(=O)CC1=CO[C@@H](O)[C@@H]2C(CO)=CC[C@@H]12" ?
inactive

Requested field: outcome. Item: "COc1cccc([C@@H]2NC(=O)CC=C[C@H](C)[C@H](c3cccc(OC)c3)NC(=O)CC=C[C@H]2C)c1"
inactive

Given the entry "CC(C)=CCCC(C)=CCON=C1C[C@@H](O)[C@@H](O)[C@@H]2[C@H]3C(=O)N(C[C@@H]4CCCO4)C(=O)[C@@H]3CC[C@@H]12" , report its measured outcome.
inactive

###

# assay.protocol: qHTS profiling of the MIPE4 collection as inhibitors of Plasmodium falciparum (DD2) proliferation (AID 743345)
# test.conditions: P. falciparum Dd2 in erythrocytes, SYBR Green DNA, 72 h; at 28.5 µM (top of the series)
readout: parasite growth remaining, % of DMSO control (lower = more inhibition) (%)
// note: answer is a bare numeric in %

Item "CC1(C)N=C(N)N=C(N)N1c1ccc(Cl)cc1" has what recorded parasite growth remaining, % of DMSO control (lower = more inhibition)?
13.5

Need parasite growth remaining, % of DMSO control (lower = more inhibition) of "O=C(O)c1ccc2c3c1cccc3c(=O)n1c3ccccc3nc21" , thanks.
97.7

Using the record for C[C@H](CCC(=O)O)[C@H]1CCC2C3CC[C@@H]4C[C@H](O)CC[C@]4(C)C3CC[C@@]21C (some centres undefined) , report its parasite growth remaining, % of DMSO control (lower = more inhibition).
97.2

For "COc1cc2c(cc1C(F)(F)F)N(C(=O)Nc1cc(F)cc(-c3cccnc3)c1)CC2" , what is its reported parasite growth remaining, % of DMSO control (lower = more inhibition)?
15.3

###

# study.target: Guanidinoacetate N-methyltransferase (Homo sapiens) (UniProt Q14353)
# assay.protocol: Confirmatory Screen for Target Class Profiling of Small Molecule Inhibitors of Methyltransferases (AID 1745852); further: potency means the concentration at half of the fitted maximal effect
# test.conditions: MTase-Glo luminescence, SAH detection, recombinant enzyme; series mostly up to 57.3 µM
Activity calls are given as the source filed them. Calls follow the shape of the full dose curve.
Consider the following molecules; for each one, report its Potency.

Give its Potency value. Item: "O=C(NCc1ccc(Oc2ccccc2)cc1)c1nc(-c2cc(Br)c(O)c(Br)c2)no1"
42.9 µM (active)

Quick one: Potency of "CN(C)c1ccc(Nc2c3ccc(NC(=O)CCN4CCCC4)cc3nc3cc(NC(=O)CCN4CCCC4)ccc23)cc1" ?
24.1 µM (active)

Which value of Potency has been reported for "CN(Cc1nccs1)c1ncnc2ccc(-c3ccc4c(c3)OCO4)cc12" in the records?
24.1 µM (active)

Requested read-out: Potency. Entry: "CC(C)N(CCCNC(=O)Nc1ccc(C(C)(C)C)cc1)C[C@H]1O[C@@H](n2cc(Br)c3c(N)ncnc32)[C@H](O)[C@@H]1O"
21.5 µM (active)

What value of measured Potency is listed for "CC(C)(C)c1ccc(-c2nc3ccccc3[nH]2)cc1" ?
10.5 µM (active)

Given the entry "C[C@@H](Oc1cc(-n2cnc3ccc(OC4CCN(C)CC4)cc32)sc1C(N)=O)c1ccccc1Cl" , report its measured Potency.
8.57 µM (active)

Source listed as PubChem BioAssay (NCATS).
